Tested on: HCT-116
Experiment: Antiproliferative activity against human HCT-116 cells assessed as growth inhibition at 0.2 uM measured after 72 hrs by MTT assay
Format: functional
Conditions: read-out: GI

molecule	inhibition of growth at 0.2 µM, %
Cc1ccc(CNC(=O)[C@H](Cc2ccc3ccccc3c2)NC(=O)[C@H](CCC(=O)NC(C)(C)C)NC(=O)CCNC(=O)CCl)cc1	60
COc1ccc(C[C@H](NC(=O)[C@H](CCC(=O)NC(C)(C)C)NC(=O)CCNC(=O)CCl)C(=O)NCc2ccc(C)cc2)cc1	29
Cc1ccc(CNC(=O)[C@H](Cc2ccc([N+](=O)[O-])cc2)NC(=O)[C@H](CCC(=O)NC(C)(C)C)NC(=O)CCNC(=O)CCl)cc1	58
Cc1ccc(CNC(=O)[C@H](Cc2ccccc2)NC(=O)[C@H](CCC(=O)NC(C)(C)C)NC(=O)CCNC(=O)/C(C#N)=C/c2ccco2)cc1	76
Cc1ccc(CNC(=O)[C@H](Cc2ccccc2)NC(=O)[C@H](CCC(=O)NC(C)(C)C)NC(=O)CCNC(=O)CCl)cc1	49
Cc1ccc(CNC(=O)[C@H](Cc2ccccc2)NC(=O)[C@H](CCC(=O)NC(C)(C)C)NC(=O)[C@H](CNC(=O)CCl)NS(=O)(=O)c2ccc(C)cc2)cc1	85
COc1ccc(/C=C(\C#N)C(=O)NCCC(=O)N[C@@H](CCC(=O)NC(C)(C)C)C(=O)N[C@@H](Cc2ccccc2)C(=O)NCc2ccc(C)cc2)cc1	32
Cc1ccc(CNC(=O)[C@H](Cc2ccccc2)NC(=O)[C@H](CCC(=O)NC(C)(C)C)NC(=O)CCNC(=O)/C(C#N)=C/c2ccc(Cl)cc2)cc1	28
Cc1ccc(/C=C(\C#N)C(=O)NCCC(=O)N[C@@H](CCC(=O)NC(C)(C)C)C(=O)N[C@@H](Cc2ccccc2)C(=O)NCc2ccc(C)cc2)cc1	41
Cc1ccc(CNC(=O)[C@H](Cc2c[nH]c3ccccc23)NC(=O)[C@H](CCC(=O)NC(C)(C)C)NC(=O)CCNC(=O)CCl)cc1	29
COc1ccc(C[C@H](NC(=O)[C@H](C)NC(=O)CN2CCOCC2)C(=O)NC(Cc2ccccc2)C(=O)[C@@]2(C)CO2)cc1 (stereo partly drawn)	75
Cc1ccc(CNC(=O)[C@H](Cc2ccccc2)NC(=O)[C@H](CCC(=O)NC(C)(C)C)NC(=O)[C@H](CNC(=O)CCl)NC(=O)CCCc2ccccc2)cc1	82
CC(C)(C)NC(=O)CC[C@H](NC(=O)CCNC(=O)CCl)C(=O)N[C@@H](Cc1ccc2ccccc2c1)C(=O)NCc1cccc2ccccc12	21

----------
System: Pfeiffer
Assay: Antiproliferative activity against human Pfeiffer cells assessed as growth inhibition at 0.2 uM measured after 72 hrs by MTT assay
Type: functional
Conditions: read-out: GI
Entries annotated with measured inhibition of growth at 0.2 µM
property name: inhibition of growth at 0.2 µM

mol	property name	value observed
CC(C)(C)NC(=O)CC[C@H](NC(=O)CCNC(=O)CCl)C(=O)N[C@@H](Cc1ccccc1)C(=O)NCc1cccc2ccccc12	inhibition of growth at 0.2 µM	< 20%
CCC(=O)NCCC(=O)N[C@@H](CCC(=O)NC(C)(C)C)C(=O)N[C@@H](Cc1ccccc1)C(=O)NCc1cccc2ccccc12	inhibition of growth at 0.2 µM	< 20%
Cc1ccc(CNC(=O)[C@H](Cc2ccc([N+](=O)[O-])cc2)NC(=O)[C@H](CCC(=O)NC(C)(C)C)NC(=O)CCNC(=O)CCl)cc1	inhibition of growth at 0.2 µM	< 20%
Cc1ccc(CNC(=O)[C@H](Cc2ccccc2)NC(=O)[C@H](CCC(=O)NC(C)(C)C)NC(=O)[C@H](CNC(=O)CCl)NC(=O)C(=O)c2c[nH]c3ccccc23)cc1	inhibition of growth at 0.2 µM	32%
CC(C)(C)NC(=O)CC[C@H](NC(=O)CCNC(=O)CCl)C(=O)N[C@@H](Cc1ccccc1)C(=O)NCc1ccc2ccccc2c1	inhibition of growth at 0.2 µM	25%
Cc1ccc(CNC(=O)[C@H](Cc2ccccc2)NC(=O)[C@H](CCC(=O)NC(C)(C)C)NC(=O)CCNC(=O)/C(C#N)=C/C2CC2)cc1	inhibition of growth at 0.2 µM	< 20%
